- procedure.text: Cytotoxicity against human HGF cells after 48 hrs
- Format: cell-based
What CC50 at 48 h was measured for each of the following?
Answers are plain numbers, in µM.

Take a look at these entries with their results.
Find the recorded CC50 at 48 h belonging to Cc1c(C(=O)/C=C/c2ccc(Cl)cc2)[n+]([O-])c2ccccc2[n+]1[O-] and report it. 27

Similarly, Cc1c(C(=O)/C=C/c2ccc(F)cc2)[n+]([O-])c2ccccc2[n+]1[O-] ? 31

I need CC50 at 48 h for every entry listed below, if you could help.
1. COc1ccc(/C=C/C(=O)c2c(C)[n+]([O-])c3ccccc3[n+]2[O-])cc1OC
2. Cc1c(C(=O)/C=C/c2ccc([N+](=O)[O-])cc2)[n+]([O-])c2ccccc2[n+]1[O-]
3. Cc1c(C(=O)/C=C/c2ccc3c(c2)OCO3)[n+]([O-])c2ccccc2[n+]1[O-]

[117, 57, 75]

Quick request: CC50 at 48 h for each listed item, please.
1. COc1cc(/C=C/C(=O)c2c(C)[n+]([O-])c3ccccc3[n+]2[O-])cc(OC)c1OC
2. Cc1c(C(=O)/C=C/c2cccc([N+](=O)[O-])c2)[n+]([O-])c2ccccc2[n+]1[O-]
3. Cc1c(C(=O)/C=C/c2ccccc2)[n+]([O-])c2ccccc2[n+]1[O-]

[35, 47, 32]
